# method-summary: Stability in presence of commonly used solid excipients under accelerated aging conditions (Study B)
# Assay type: physicochemical
# condition-label: drug-excipient blends, accelerated aging conditions, 1 and 3 weeks, HPLC analysis
reported-endpoint: Stability in a prototypical formulation

{"compound": "CCc1ccc(Cc2cc([C@@H]3O[C@H](CO)[C@@H](O)[C@H](O)[C@H]3O)ccc2Cl)cc1 [Compound 1]", "reported-endpoint": "Stability in a prototypical formulation", "test-result": "Yes"}
{"compound": "CSc1ccc(Cc2cc([C@@H]3O[C@H](CO)[C@@H](O)[C@H](O)[C@H]3O)ccc2C)cc1 [Compound 3]", "reported-endpoint": "Stability in a prototypical formulation", "test-result": "No"}
{"compound": "CCc1ccc(Cc2cccc([C@@H]3O[C@H](CO)[C@@H](O)[C@H](O)[C@H]3O)c2)cc1 [Compound 5]", "reported-endpoint": "Stability in a prototypical formulation", "test-result": "Yes"}
{"compound": "CCOc1ccc(Cc2cc([C@@H]3O[C@H](CO)[C@@H](O)[C@H](O)[C@H]3O)ccc2Cl)cc1 [Compound 4]", "reported-endpoint": "Stability in a prototypical formulation", "test-result": "Yes"}
